Origin of values: paper PMC11844072

# Test system: DU-145
# test: NCI 60 single concentration growth inhibition
# Format: cell-based, human
# assay context: Homo sapiens, DU-145, Prostate cancer, read-out: GI%
measured attribute: inhibition at 10 µM (%)
Entry rule: numbers only, all in %.

As a guide, the following entries are already answered.
>>> df
                                   compound   measured_attribute  measurement_unit  meas_value
0  COc1ccc(-c2nc3cc(Cl)c(Cl)cc3n2CC(=O)NN=Cc2ccc(O)c(OC)c2)cc1 [Compound 10l]  inhibition at 10 µM                 %        31.8
1  COC(=O)COc1ccc(C=NNC(=O)Cn2c(-c3ccc(OC)cc3)nc3cc(Cl)c(Cl)cc32)cc1 [Compound 10h]  inhibition at 10 µM                 %         158
2  COC(=O)COc1ccc(C=NNC(=O)Cn2c(-c3ccc(OC)cc3)nc3cc(Cl)c(Cl)cc32)cc1OC [Compound 10p]  inhibition at 10 µM                 %         143
3  COc1ccc(-c2nc3cc(Cl)c(Cl)cc3n2CC(=O)NN=Cc2ccc(OC)c(O)c2)cc1 [Compound 10k]  inhibition at 10 µM                 %        26.4
4  COC(=O)COc1cc(C=NNC(=O)Cn2c(-c3ccc(OC)cc3)nc3cc(Cl)c(Cl)cc32)ccc1OC [Compound 10o]  inhibition at 10 µM                 %         155

Asked: Item under review: COC(=O)COc1cccc(C=NNC(=O)Cn2c(-c3ccc(OC)cc3)nc3cc(Cl)c(Cl)cc32)c1 [Compound 10g] . Reported inhibition at 10 µM?
Given back: 110

* * *

Catalogue of inhibition at 10 µM readings, one per entry.
# Tested on: UACC-257
# test: NCI 60 single concentration growth inhibition
# Type: cell-based, human
# assay context: Homo sapiens, UACC-257, Melanoma, read-out: GI%
Write it as a number; the unit % goes unstated.

# example entries with known answers
                                   molecule  target_or_system   measured_attribute  meas_value
0  COc1ccc(-c2nc3cc(Cl)c(Cl)cc3n2CC(=O)NN=Cc2ccc(O)c(OC)c2)cc1 [Compound 10l]          UACC-257  inhibition at 10 µM        36.3
1  COC(=O)COc1cc(C=NNC(=O)Cn2c(-c3ccc(OC)cc3)nc3cc(Cl)c(Cl)cc32)ccc1OC [Compound 10o]          UACC-257  inhibition at 10 µM        41.4
2  COc1ccc(-c2nc3cc(Cl)c(Cl)cc3n2CC(=O)NN=Cc2cccc(O)c2)cc1 [Compound 10a]          UACC-257  inhibition at 10 µM        57.7

Proceeding to the next molecule to report its inhibition at 10 µM.
Asked: Field request: inhibition at 10 µM | item: COc1ccc(-c2nc3cc(Cl)c(Cl)cc3n2CC(=O)NN=Cc2ccc(OC)c(O)c2)cc1 [Compound 10k]
Given back: 40.1

* * *

# Test system: ACHN
# test: NCI 60 single concentration growth inhibition
# Format: cell-based, human
# assay context: Homo sapiens, Renal cancer, read-out: GI%
measured attribute: inhibition at 10 µM (%)
Please reply with the bare figure in % and do not write the unit itself.

Illustrative cases are given below, each with its answer.
                                   molecule  meas_value
0  COc1ccc(-c2nc3cc(Cl)c(Cl)cc3n2CC(=O)NN=Cc2cccc(OC)c2)cc1 [Compound 10c]        20.4
1  COc1ccc(-c2nc3cc(Cl)c(Cl)cc3n2CC(=O)NN=Cc2ccc(OC)c(O)c2)cc1 [Compound 10k]        36.6
2  COc1ccc(-c2nc3cc(Cl)c(Cl)cc3n2CC(=O)NN=Cc2cccc(O)c2)cc1 [Compound 10a]          40

Asked: Need inhibition at 10 µM of COc1ccc(-c2nc3cc(Cl)c(Cl)cc3n2CC(=O)NN=Cc2ccc(O)c(OC)c2)cc1 [Compound 10l] , thanks.
Given back: 32.4

Asked: Please answer likewise for COC(=O)COc1ccc(C=NNC(=O)Cn2c(-c3ccc(OC)cc3)nc3cc(Cl)c(Cl)cc32)cc1 [Compound 10h]
Given back: 106

Asked: # repeat for COc1ccc(C=NNC(=O)Cn2c(-c3ccc(OC)cc3)nc3cc(Cl)c(Cl)cc32)cc1 [Compound 10d]
Given back: 40.2

Asked: Another: COC(=O)COc1cc(C=NNC(=O)Cn2c(-c3ccc(OC)cc3)nc3cc(Cl)c(Cl)cc32)ccc1OC [Compound 10o]
Given back: 71.3

* * *

compounds and their reported inhibition at 10 µM
# Test system: 786-0
# test: NCI 60 single concentration growth inhibition
# Type: cell-based, human
# assay context: Homo sapiens, 786-0, Renal cancer, read-out: GI%
# Experimental: The synthesized dichlorobenzimidazoles 10a–p were assayed for their influence on divers cancer cell lines according to the method presented in the Additional file A. 5. Screening of cytotoxic activity against a panel of sixty human tumor cell lines The selected compounds by NCI were evaluated for their anticancer activity in a two-stage process. […] Three dose response parameters are calculated for each experimental agent. […]
Unit % implied. Number only.

Some compounds with known inhibition at 10 µM results, for comparison:
In [3]: df
Out[3]:
                                   compound   measured_attribute  meas_value
0  COc1ccc(-c2nc3cc(Cl)c(Cl)cc3n2CC(=O)NN=Cc2ccc(O)cc2)cc1 [Compound 10b]  inhibition at 10 µM        34.8
1  COC(=O)COc1cc(C=NNC(=O)Cn2c(-c3ccc(OC)cc3)nc3cc(Cl)c(Cl)cc32)ccc1OC [Compound 10o]  inhibition at 10 µM        11.9

Asked: Look at this compound and give its reported inhibition at 10 µM. COc1ccc(-c2nc3cc(Cl)c(Cl)cc3n2CC(=O)NN=Cc2ccc(O)c(OC)c2)cc1 [Compound 10l]
Given back: 30.7

* * *

# Test system: NCI-H226
# test: NCI 60 single concentration growth inhibition
# Assay type: cell-based, human
# assay context: Homo sapiens, NCI-H226, Non-small cell lung cancer, read-out: GI%
# Protocol: The synthesized dichlorobenzimidazoles 10a–p were assayed for their influence on divers cancer cell lines according to the method presented in the Additional file A. 5. Screening of cytotoxic activity against a panel of sixty human tumor cell lines The selected compounds by NCI were evaluated for their anticancer activity in a two-stage process. […] Three dose response parameters are calculated for each experimental agent. […]
measured attribute: inhibition at 10 µM

As a guide, the following entries are already answered.
                                   molecule  meas_value
0  COC(=O)COc1ccc(C=NNC(=O)Cn2c(-c3ccc(OC)cc3)nc3cc(Cl)c(Cl)cc32)cc1 [Compound 10h]        < 5%
1  COc1ccc(-c2nc3cc(Cl)c(Cl)cc3n2CC(=O)NN=Cc2cccc(OCC(=O)O)c2)cc1 [Compound 10e]        < 5%

Now take the following molecule into account.
Asked: Which value of inhibition at 10 µM has been reported for COc1ccc(-c2nc3cc(Cl)c(Cl)cc3n2CC(=O)NN=Cc2ccc(OCC(=O)O)cc2)cc1 [Compound 10f] in the records?
Given back: < 5%

* * *

Each entry below lists one item and its recorded inhibition at 10 µM value.
# Test system: UACC-62
# test: NCI 60 single concentration growth inhibition
# Format: cell-based, human
# assay context: Homo sapiens, UACC-62, Melanoma, read-out: GI%
Give a bare numeral; the unit % is implied.

Here is how some molecules turned out for inhibition at 10 µM.
In [3]: df
Out[3]:
                                   molecule  meas_value
0  COc1ccc(-c2nc3cc(Cl)c(Cl)cc3n2CC(=O)NN=Cc2cccc(O)c2)cc1 [Compound 10a]          40
1  CCOC(=O)C(C)Oc1ccc(C=NNC(=O)Cn2c(-c3ccc(OC)cc3)nc3cc(Cl)c(Cl)cc32)cc1 (stereo not shown) [Compound 10j]        20.1
2  COc1ccc(-c2nc3cc(Cl)c(Cl)cc3n2CC(=O)NN=Cc2ccc(OC)c(O)c2)cc1 [Compound 10k]        35.4
3  COc1ccc(C=NNC(=O)Cn2c(-c3ccc(OC)cc3)nc3cc(Cl)c(Cl)cc32)cc1 [Compound 10d]        34.1
4  COc1ccc(-c2nc3cc(Cl)c(Cl)cc3n2CC(=O)NN=Cc2ccc(O)cc2)cc1 [Compound 10b]          38

Asked: # query: inhibition at 10 µM of entry COc1ccc(-c2nc3cc(Cl)c(Cl)cc3n2CC(=O)NN=Cc2ccc(O)c(OC)c2)cc1 [Compound 10l]
Given back: 33.6
